target desc: xanthine oxidase-hypoxanthine (XO/HX) reaction
protocol text: Inhibitory effect on luminol-induced chemiluminescence (CL) which results from xanthine oxidase-hypoxanthine (XO/HX) reaction
applied conditions: 37° C, peak intensity, sample in dimethylsulfoxide
reported endpoint: pIC50
Numbers only, as −log10 of the molar value.

Check out these entries, answers already filled in.
>>> df
                                   molecule                               target_desc  result_number
0  COc1cc2c(cc1O)CC(C(C)(C)O)O2 (stereo not drawn) [Example 3]  xanthine oxidase-hypoxanthine (XO/HX) reaction           6.49
1                   COc1cc2oc(C(C)C)cc2cc1O  xanthine oxidase-hypoxanthine (XO/HX) reaction           8.33

Task: State, in one line, measured pIC50 of COc1cc2c(cc1O)CC(C(C)(C)O)O2 (racemic) [Example 1]
Result: 6.42

Values compiled from patent US5043354A.
